system: YAP-dependent transcription in NCI-H2052 Tet-On shYAP_2371 pLenti6 MCAT_Luc cells; experiment: YAP reporter gene activity assay (MCAT-Luc), NCI-H2052; type: cell-based; details: 24 hrs
Assay Endpoint: IC50

# input Entry COc1ccc(C(N)=O)c(-c2c(Cl)c(F)cc3c2[C@H](C)[C@@](CN[C@H]2CC[C@H](C(=O)OC)CC2)(c2ccccc2)O3)c1F [C-I-k] has what IC50?
# output 40 nM

----------
Would you kindly list pIC50 for each of these compounds?
system: YAP-dependent transcription in SF268-MCAT_Luc_dox-i-shYAPLevy (Clone 13) cells; test: YAP reporter gene activity assay (MCAT-Luc), SF268; assay type: cell-based; conditions: Homo sapiens, SF-268; SF268 MCAT_Luc, 24 hrs
Numbers only, as −log10 of the molar value.

[
  {
    "Compound": "COc1ccc(C(N)=O)c(-c2c(Cl)c(F)cc3c2[C@H](C)[C@@](CN[C@H]2CC[C@H](C(=O)N4CCC(OC5CCN(C(=O)COc6cc(-c7scnc7C)ccc6CNC(=O)[C@@H]6C[C@@H](O)CN6C(=O)[C@@H](NC(=O)C6(F)CC6)C(C)(C)C)CC5)CC4)CC2)(c2ccccc2)O3)c1F (atropisomer, axis not shown)",
    "pIC50": 9.38
  },
  {
    "Compound": "COc1ccc(C(N)=O)c(-c2c(Cl)c(F)cc3c2[C@H](C)[C@@](CN[C@H]2CC[C@H](C(=O)N4CCC(C5CCN(C(=O)COc6ccc(C)c(N7CCC(=O)NC7=O)c6)CC5)CC4)CC2)(c2ccccc2)O3)c1F (atropisomer, axis not shown)",
    "pIC50": 9.39
  },
  {
    "Compound": "COc1ccc(C(N)=O)c(-c2c(Cl)c(F)cc3c2[C@H](C)[C@@](CN[C@H]2CC[C@H](C(=O)N4CCC(OC5CCN(C(=O)COc6ccc(C)c(N7CCC(=O)NC7=O)c6)CC5)CC4)CC2)(c2ccccc2)O3)c1F (atropisomer, axis not shown)",
    "pIC50": 9.66
  },
  {
    "Compound": "COc1ccc(C(N)=O)c(-c2c(Cl)c(F)cc3c2[C@H](C)[C@@](CN[C@H]2CC[C@H](C(=O)N4CCC(OC5CCN(C(=O)COc6ccc(N7CCC(=O)NC7=O)c(C)c6)CC5)CC4)CC2)(c2ccccc2)O3)c1F (atropisomer, axis not shown)",
    "pIC50": 9.20
  },
  {
    "Compound": "COc1ccc(C(N)=O)c(-c2c(Cl)c(F)cc3c2[C@H](C)[C@@](CN[C@H]2CC[C@H](C(=O)O)CC2)(c2ccccc2)O3)c1F (atropisomer, axis not shown)",
    "pIC50": 6.74
  }
]

Hey, quick one: what's pIC50 for each of these?
1. COc1ccc(OCC(=O)N2CCC(CC3CCN(C(=O)[C@H]4CC[C@H](NC[C@]5(c6ccccc6)Oc6cc(F)c(Cl)c(-c7c(C(N)=O)ccc(OC)c7F)c6[C@@H]5C)CC4)CC3)CC2)cc1N1CCC(=O)NC1=O (atropisomer, axis not shown)
2. COc1ccc(C(=O)NCCCCCc2cccc3c2CN(C2CCC(=O)NC2=O)C3=O)c(-c2c(Cl)c(F)cc3c2C[C@@](CN)(c2ccccc2)O3)c1F (some centres unmarked)
3. CNC(=O)c1cnc(OCCOCCOCCn2cc(-c3ccc4c(c3)CN(C3CCC(=O)NC3=O)C4=O)nn2)c(F)c1-c1c(Cl)c(F)cc2c1C[C@](c1ccccc1)([C@@H]1CCCN1)O2 (some centres unmarked)

# output
1. 8.96
2. 8.03
3. 5.87
